System tested: h5-HT2A (human 5-HT2A receptor) (Homo sapiens)
Sequence (P28223 whole entry): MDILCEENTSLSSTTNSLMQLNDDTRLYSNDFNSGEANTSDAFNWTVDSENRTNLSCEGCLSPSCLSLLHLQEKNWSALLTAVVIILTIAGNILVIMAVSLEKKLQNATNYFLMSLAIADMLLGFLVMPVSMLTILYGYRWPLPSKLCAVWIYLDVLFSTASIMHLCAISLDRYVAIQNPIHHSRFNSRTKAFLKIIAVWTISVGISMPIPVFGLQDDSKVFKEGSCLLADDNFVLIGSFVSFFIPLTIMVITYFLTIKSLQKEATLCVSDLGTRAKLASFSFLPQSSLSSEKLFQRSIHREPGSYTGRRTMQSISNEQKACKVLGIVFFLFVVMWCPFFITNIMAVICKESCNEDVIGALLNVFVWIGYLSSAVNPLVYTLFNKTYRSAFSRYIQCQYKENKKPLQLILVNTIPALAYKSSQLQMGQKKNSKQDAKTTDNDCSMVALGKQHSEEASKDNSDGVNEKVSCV
Please respond with MET when measured Ki is strictly beneath 500 nM, and with NOT MET in all other cases.

Examples with answers:
>  <Compound>
Cc1cc2c(cc1Cl)N(C(=O)Nc1ccc(Oc3cccnc3C)nc1)CC2

>  <Label>
MET

$$$$
>  <Compound>
CN(C)[C@@H]1Cc2ccccc2[C@@H](c2ccccc2)C1 [(−)-PAT]

>  <Label>
MET

$$$$
>  <Compound>
Cn1ccc2cc3c(cc21)CCN3C(=O)Nc1cccnc1

>  <Label>
NOT MET

$$$$
>  <Compound>
CN(C)[C@H]1Cc2ccccc2[C@H](c2ccccc2)C1 [(+)-PAT]

>  <Label>
MET

$$$$

Please examine the following record next.
Ask: Item Cc1ccc([C@H]2C[C@H](N(C)C)Cc3ccccc32)cc1 : Ki beneath 500 nM, strictly?
Reply: MET

---

System tested: m5-HT2A (C57Bl/6 mouse 5-HT2A receptor) (Mus musculus, UniProt P35363)
Sequence (P35363 whole entry): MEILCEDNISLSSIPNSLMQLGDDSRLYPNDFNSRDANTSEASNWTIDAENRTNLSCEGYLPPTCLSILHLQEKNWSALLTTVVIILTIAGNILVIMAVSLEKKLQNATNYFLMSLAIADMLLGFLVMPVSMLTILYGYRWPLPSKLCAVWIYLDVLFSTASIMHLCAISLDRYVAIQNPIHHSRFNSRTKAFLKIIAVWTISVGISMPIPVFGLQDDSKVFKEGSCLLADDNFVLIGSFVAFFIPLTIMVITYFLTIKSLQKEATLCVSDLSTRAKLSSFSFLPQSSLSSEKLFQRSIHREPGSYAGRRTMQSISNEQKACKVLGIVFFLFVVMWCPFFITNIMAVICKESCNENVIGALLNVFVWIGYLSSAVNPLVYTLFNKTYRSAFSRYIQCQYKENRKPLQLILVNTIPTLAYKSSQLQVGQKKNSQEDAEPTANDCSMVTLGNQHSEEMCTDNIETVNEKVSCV
Method summary: [3H]-ketanserin competition, HEK-293 membranes
Measured attribute: log10(Ki) (log10 of the value in nM)
A value of 2 here means Ki of 100 in nM, since values are log10.

>  <Molecule>
CN(C)[C@H]1Cc2ccccc2[C@H](c2ccccc2)C1 [(+)-PAT]

>  <log10(Ki)>
2.52

$$$$

Ask: Given Cc1cc2c(cc1Cl)N(C(=O)Nc1ccc(Oc3cccnc3C)nc1)CC2 , state its recorded log10(Ki).
Reply: 1.98

Ask: Given Cc1ccc([C@H]2C[C@H](N(C)C)Cc3ccccc32)cc1 , state its recorded log10(Ki).
Reply: 2.51

Ask: Given COc1cc(CC(C)N)c(OC)cc1I (racemic) [(±)-DOI] , state its recorded log10(Ki).
Reply: 0.60

Ask: Given CN(C)[C@@H]1Cc2ccccc2[C@@H](c2ccccc2)C1 [(−)-PAT] , state its recorded log10(Ki).
Reply: 2.06

Ask: Given Cn1ccc2cc3c(cc21)CCN3C(=O)Nc1cccnc1 , state its recorded log10(Ki).
Reply: 2.53

---

System tested: UniProtKB P28335
Sequence (P28335 33-458): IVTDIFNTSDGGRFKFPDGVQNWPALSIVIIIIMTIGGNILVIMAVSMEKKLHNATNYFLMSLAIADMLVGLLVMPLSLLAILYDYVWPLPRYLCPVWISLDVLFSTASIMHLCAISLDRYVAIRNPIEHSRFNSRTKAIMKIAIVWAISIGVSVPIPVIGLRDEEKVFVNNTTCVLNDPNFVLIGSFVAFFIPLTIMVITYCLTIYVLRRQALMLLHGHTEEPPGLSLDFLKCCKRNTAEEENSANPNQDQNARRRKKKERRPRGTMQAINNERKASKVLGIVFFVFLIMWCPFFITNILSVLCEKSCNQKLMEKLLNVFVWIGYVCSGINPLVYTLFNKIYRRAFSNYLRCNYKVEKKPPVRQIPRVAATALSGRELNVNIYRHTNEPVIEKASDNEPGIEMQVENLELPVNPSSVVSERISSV
Here, each record is paired with measured pKi data.
// returns pKi (minus log10 of molar concentration), number only

// known answers, use as guide
>  <Molecule>
COc1cc(CC(C)N)c(OC)cc1I (racemic) [(±)-DOI]

>  <Observed value>
7.72

$$$$
>  <Molecule>
Cc1cc2c(cc1Cl)N(C(=O)Nc1ccc(Oc3cccnc3C)nc1)CC2 [SB-242084]

>  <Observed value>
8.82

$$$$

# ---- query molecule ----
Ask: Given Cc1ccc([C@H]2C[C@H](N(C)C)Cc3ccccc32)cc1 [Methyl-PAT] , state its recorded pKi.
Reply: 6.89

---

System tested: m5-HT2C (C57Bl/6 mouse 5-HT2C-VNV receptor) (Mus musculus, UniProt P34968, I157V/I161V)
Sequence (P34968 33-459 I157V/I161V): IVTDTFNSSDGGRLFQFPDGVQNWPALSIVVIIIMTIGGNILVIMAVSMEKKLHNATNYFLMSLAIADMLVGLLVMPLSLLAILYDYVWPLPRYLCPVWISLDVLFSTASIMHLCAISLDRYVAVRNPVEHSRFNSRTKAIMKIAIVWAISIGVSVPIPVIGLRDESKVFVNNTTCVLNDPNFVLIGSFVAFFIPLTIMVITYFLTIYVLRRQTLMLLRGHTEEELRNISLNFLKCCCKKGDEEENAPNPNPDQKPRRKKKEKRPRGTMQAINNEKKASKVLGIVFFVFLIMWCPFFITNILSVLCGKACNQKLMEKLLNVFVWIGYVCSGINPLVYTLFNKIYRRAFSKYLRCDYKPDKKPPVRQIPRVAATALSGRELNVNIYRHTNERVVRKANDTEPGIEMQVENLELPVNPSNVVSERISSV
Method summary: [3H]-mesulergine competition, HEK-293 membranes
Type: binding
Please respond with Met when measured Ki is strictly beneath 50 nM, and with Not met in all other cases.

Examples with answers:
>  <Molecule>
CN(C)[C@@H]1Cc2ccccc2[C@@H](c2ccccc2)C1 [(−)-PAT]

>  <Label>
Not met

$$$$
>  <Molecule>
CN(C)[C@H]1Cc2ccccc2[C@H](c2ccccc2)C1 [(+)-PAT]

>  <Label>
Not met

$$$$
>  <Molecule>
COc1cc(CC(C)N)c(OC)cc1I (racemic) [(±)-DOI]

>  <Label>
Met

$$$$
>  <Molecule>
Cc1ccc([C@H]2C[C@H](N(C)C)Cc3ccccc32)cc1 [Methyl-PAT]

>  <Label>
Not met

$$$$

Please examine the following record next.
Ask: Item Cc1cc2c(cc1Cl)N(C(=O)Nc1ccc(Oc3cccnc3C)nc1)CC2 [SB-242084] : Ki beneath 50 nM, strictly?
Reply: Met

---

System tested: m5-HT2A (C57Bl/6 mouse 5-HT2A receptor) (Mus musculus)
Method summary: saturation radioligand binding, HEK-293 membranes
Measured attribute: Kd

Ask: # get_value(readout= Kd, system= m5-HT2A (C57Bl/6 mouse 5-HT2A receptor) (Mus musculus)) for O=C(c1ccc(F)cc1)C1CCN(CCn2c(=O)[nH]c3ccccc3c2=O)CC1 [[^3H]-ketanserin]
Reply: 0.92 nM

---

Here, each record is paired with measured EC50 data.
System tested: m5-HT2C (C57Bl/6 mouse 5-HT2C-VNV receptor) (Mus musculus, UniProt P34968, I157V/I161V)
Method summary: [3H]-inositol phosphate accumulation
Dear colleague, please return just the value in µM, with no unit written.

>  <Molecule>
CN(C)[C@H]1Cc2ccccc2[C@H](c2ccccc2)C1 [(+)-PAT]

>  <System tested>
m5-HT2C (C57Bl/6 mouse 5-HT2C-VNV receptor) (Mus musculus, UniProt P34968, I157V/I161V)

>  <Observed value>
2.11

$$$$
>  <Molecule>
COc1cc(CC(C)N)c(OC)cc1I (racemic) [(±)-DOI]

>  <System tested>
m5-HT2C (C57Bl/6 mouse 5-HT2C-VNV receptor) (Mus musculus, UniProt P34968, I157V/I161V)

>  <Observed value>
0.0034

$$$$
>  <Molecule>
Cc1ccc([C@H]2C[C@H](N(C)C)Cc3ccccc32)cc1

>  <System tested>
m5-HT2C (C57Bl/6 mouse 5-HT2C-VNV receptor) (Mus musculus, UniProt P34968, I157V/I161V)

>  <Observed value>
0.808

$$$$

# ---- query molecule ----
Ask: # get_value(readout= EC50, system= m5-HT2C (C57Bl/6 mouse 5-HT2C-VNV receptor) (Mus musculus, UniProt P34968, I157V/I161V)) for CN(C)[C@@H]1Cc2ccccc2[C@@H](c2ccccc2)C1 [(−)-PAT]
Reply: 0.039

---

System tested: UniProt P28335
Method summary: [3H]-inositol phosphate accumulation
Measured attribute: pEC50
// returns pEC50 (minus log10 of molar concentration), number only

>  <Compound>
COc1cc(CC(C)N)c(OC)cc1I (racemic) [(±)-DOI]

>  <pEC50>
8.26

$$$$

# ---- query compound ----
Ask: # get_value(readout= pEC50, system= UniProt P28335) for Cc1ccc([C@H]2C[C@H](N(C)C)Cc3ccccc32)cc1 [Methyl-PAT]
Reply: 5.95

The measurements presented in this section are drawn from paper PMC3754837.
